Just for reference, paper PMC13242511 is where these values come from.

- System: Notch signalling
- protocol.description: Notch reporter assay (12xCSL firefly luciferase / renilla luciferase, HEK293T Notch1ΔE reporter cell line clone #A1-11)
- Type: cell-based
- experimental.setup: Homo sapiens, HEK-293T; 10 µM, three-dose confirmation screen; unit from Fig. 2 legend; read-out: Hit confirmation at 10 µM (Notch reporter signal)
- Description: To identify novel Notch inhibitors in an unbiased manner, we generated a novel Notch reporter construct, which records the level of Notch signalling immediately downstream of receptor activation rather than further downstream in the signalling cascade, for example at the level of Hes and Hey proteins (Fig. 1B). […]
quantity.kind: activity at 10 µM

Worked examples, 4 compounds total:
>  <compound>
Cc1ccc(-c2noc([C@@H]3Cc4[nH]cnc4CN3C(=O)CCC(=O)O)n2)cc1 [CBK288958]

>  <target.under.test>
Notch signalling

>  <quantity.kind>
activity at 10 µM

>  <data.value>
49.6%

$$$$
>  <compound>
COc1cccc(CNc2ccc(N3CCCCC3)cc2)c1OCc1cccs1 [compound C]

>  <target.under.test>
Notch signalling

>  <quantity.kind>
activity at 10 µM

>  <data.value>
66.2%

$$$$
>  <compound>
Cc1ccccc1Nc1nc(N)nc(CN2CCCC(C(F)(F)F)C2)n1 (centres unmarked) [CBK305073]

>  <target.under.test>
Notch signalling

>  <quantity.kind>
activity at 10 µM

>  <data.value>
65.1%

$$$$
>  <compound>
CCOc1ccccc1-c1ccccc1NC(=O)c1ccc2c(c1)ncn2C1CC1 [CBK285808]

>  <target.under.test>
Notch signalling

>  <quantity.kind>
activity at 10 µM

>  <data.value>
64.7%

$$$$

Proceed to the following item.
[Q] // fetch Notch signalling activity at 10 µM for Cc1ccc2[nH]c3c(c2c1)CCOC31CCN(Cc2ccccc2-c2ccccc2)CC1 [compound B]
[A] 65%

* * *

- Test system: Notch signalling
- protocol.description: Notch reporter assay (12xCSL firefly luciferase / renilla luciferase, HEK293T Notch1ΔE reporter cell line clone #A1-11)
- Assay type: cell-based
- experimental.setup: Homo sapiens, HEK-293T; 1,25µM; 3-point DR confirmation screen, Notch reporter assay; read-out: inhibitor ratio in % of DMSO in 3 point DR
- Description: To identify novel Notch inhibitors in an unbiased manner, we generated a novel Notch reporter construct, which records the level of Notch signalling immediately downstream of receptor activation rather than further downstream in the signalling cascade, for example at the level of Hes and Hey proteins (Fig. 1B). […]
Quick reference for activity among some molecules

>  <molecule>
COc1cc(Nc2nc(-c3cccc(NC(C)=O)c3)cn3ccnc23)cc(OC)c1OC

>  <target.under.test>
Notch signalling

>  <activity>
96.6%

$$$$
>  <molecule>
COc1ccc(C(=O)N2Cc3nc[nH]c3C[C@H]2c2nc(-c3ccc(OC)cc3)no2)cc1

>  <target.under.test>
Notch signalling

>  <activity>
83.6%

$$$$
>  <molecule>
CC(=O)N1CCc2sccc2C1c1ccccc1NCc1ccoc1 (centres unmarked)

>  <target.under.test>
Notch signalling

>  <activity>
88.7%

$$$$
>  <molecule>
CC1CCc2c(sc3ncnc(NCCCN4CCCCCC4=O)c23)C1 (centres unmarked)

>  <target.under.test>
Notch signalling

>  <activity>
107%

$$$$

# input for lookup
[Q] Recorded activity of "O=C(Nc1nnc(-c2ccc3c(c2)OCCO3)o1)c1ccccc1F" , please.
[A] 85.1%
